test system: SNB-19 CNS; assay: NCI-60 one-dose screen, 48 h (100 = growth as untreated, 0 = no growth, -100 = all killed); settings: 10 µM unless noted
This is part of a sample that, as a whole, favours compounds with a hit. Of some 83,000 tested, about 20% had one in any assay.
OBSERVATION_TYPE: growth (%)
Answers are plain numbers, in %.

Guide cases for growth, answers given:
[[record]]
compound = "CC[C@@H](c1ccc2cc(OC)ccc2c1)C(C)(C)C(=O)F"
observation_type = "growth"
observed_measurement = 91.9

[[record]]
compound = "COc1ccc2c(c1)c(-c1cc(-c3cn(C)c4ccc(OC)cc34)on1)cn2C"
observation_type = "growth"
observed_measurement = 94.5

[[record]]
compound = "CCOC(=O)NN1CC(O)=C(c2nc(-c3ccc(Br)cc3)cs2)C1=N"
observation_type = "growth"
observed_measurement = 98.7

[[record]]
compound = "O=C(c1ccc(Cl)cc1Cl)N1c2ccccc2Sc2ccccc21"
observation_type = "growth"
observed_measurement = 57.3

[[record]]
compound = "CCOC(=O)c1c(-c2ccccc2)n2c(=O)cc(C)c3c(O)c(O)cc1c32"
observation_type = "growth"
observed_measurement = 65.6


List reported growth for each of these compounds:
1. CC(=O)c1cc(-c2ccccc2N)n(-c2ccc3c(c2)OCO3)c1C
2. CCOc1ccc(NC(=O)c2cc(OC)c(OC)c(OC)c2)cc1
3. O=C(CSc1nc2ccc([N+](=O)[O-])cc2[nH]1)Nc1cccc([N+](=O)[O-])c1
4. CCCCCCC(=O)Nc1ncc(Cc2ccc(C)cc2)s1

Result:
1: 18.6; 2: 49.6; 3: 64.2; 4: 44.2

Q: Report the value of growth obtained on SNB-19 CNS for COc1ccc(C2=NN(C(=O)c3cc(OC)c(OC)c(OC)c3)C(c3ccc(N(C)C)cc3)C2)cc1 (stereo not given) .
Result: 37.6

====

tested on: UACC-257 melanoma; assay: NCI-60 one-dose screen, 48 h; settings: 10 µM unless noted
Compounds without any hit were thinned out: in the full panel of roughly 83,000, 20% have a hit. Active and inactive are the calls of the source. How the source made its calls: active means growth percent below 10; inactive means the rest.
Outcome field: choose from Y = active, N = inactive

Worked examples, 5 compounds total:
[[record]]
compound = "COc1cccc(Nc2ccnc3[nH]c4ccc([N+](=O)[O-])cc4c23)c1"
category_label = "N"

[[record]]
compound = "Cc1cc2nc(-c3c(-c4ccc(F)cc4)nc4sccn34)[nH]c2cc1C"
category_label = "N"

[[record]]
compound = "COC(=O)c1ccc2c(c1)c1c(C)c3ccncc3c(C)c1n2C"
category_label = "Y"

[[record]]
compound = "O=C1NC(=O)c2c1c1c3ccccc3[nH]c1c1oc3cc(Br)ccc3c21"
category_label = "N"

[[record]]
compound = "CCOC(=O)c1c(-c2ccccc2)n2c(=O)cc(C)c3c(O)c(O)cc1c32"
category_label = "N"


# next compound below
Q: Per the assay record, what outcome was assigned to COC(c1ccc2ccccc2c1)C(C)C(F)F (stereo unspecified) ?
Result: N

====

tested on: SN12C renal; assay: NCI-60 one-dose screen, 48 h; conditions: 10 µM unless noted
Compounds without any hit were thinned out: in the full panel of roughly 83,000, 20% have a hit. The source made the active and inactive calls. How the source made its calls: active means growth percent below 10; inactive means the rest.
Outcome field: choose from active, inactive

Worked examples, 2 molecules total:
[[record]]
molecule = "Nc1c(C(=O)Nc2cccc3ncccc23)sc2nc3c(cc12)C(=O)CCC3"
category_label = "inactive"

[[record]]
molecule = "O=c1[nH]cnc2c1C(c1ccc(Br)cc1)c1sc3c(F)cccc3c1O2 (centres undefined)"
category_label = "inactive"


Q: Per the assay record, what outcome was assigned to COC(=O)/C=C1/SC(=Nc2cccc(Cl)c2)N(CCc2c[nH]c3ccc(O)cc23)C1=O ?
Result: inactive

Q: Per the assay record, what outcome was assigned to COc1ccc(C2=Nc3c(N)ncnc3NC(c3cccc(Nc4ccnc5cc(C(F)(F)F)ccc45)c3)C2)cc1 (centres undefined) ?
Result: inactive

Q: Per the assay record, what outcome was assigned to Cc1ccc(-c2nc(C#N)c(S(=O)(=O)NCCO)o2)cc1 ?
Result: inactive

Q: Per the assay record, what outcome was assigned to COc1ccc(-c2cc(C(=O)N3N=C(c4ccc(N)cc4)CC3c3ccccc3)c3ccccc3n2)cc1 (centres undefined) ?
Result: inactive

Q: Per the assay record, what outcome was assigned to COc1ccc2cc(-c3ccc(-c4ccc(C(=N)N)s4)s3)ccc2c1 ?
Result: active
